Measured IC50 by item
# experimental.system: IRAK4 enzyme (Homo sapiens (Human), UniProt Q9NWZ3)
# Sequence (Q9NWZ3 whole entry): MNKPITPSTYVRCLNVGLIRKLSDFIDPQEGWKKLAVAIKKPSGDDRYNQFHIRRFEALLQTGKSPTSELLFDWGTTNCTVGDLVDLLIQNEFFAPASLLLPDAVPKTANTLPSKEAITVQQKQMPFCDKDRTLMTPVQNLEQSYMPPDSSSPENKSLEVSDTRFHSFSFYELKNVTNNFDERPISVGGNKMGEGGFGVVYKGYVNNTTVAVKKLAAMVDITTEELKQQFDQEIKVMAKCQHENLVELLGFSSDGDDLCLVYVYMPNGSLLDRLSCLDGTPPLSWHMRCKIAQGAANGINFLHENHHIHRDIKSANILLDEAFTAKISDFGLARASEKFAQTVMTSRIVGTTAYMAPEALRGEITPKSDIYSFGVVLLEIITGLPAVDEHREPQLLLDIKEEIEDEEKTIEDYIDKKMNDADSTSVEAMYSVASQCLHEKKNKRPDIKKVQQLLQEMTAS
# experiment: biochemical
# Assay type: biochemical
# applied.conditions: IRAK4 enzyme, TR-FRET (HTRF), 500 μM ATP

Use the examples below as a reference point.
In: Return value of IC50 for input CC(C)(O)[C@H](F)CNC(=O)c1cnc(-c2ccc3cc(C#N)cnn23)cc1NC1Cc2ccncc2C1 (single isomer, unassigned) [Example 677] , no commentary.
Out: < 1 nM

In: Return value of IC50 for input CC(C)(O)[C@H](F)CNC(=O)c1cnc(-c2ccc3cc(C#N)cnn23)cc1Nc1ccc2c(C#N)c[nH]c2c1 [Example 571] , no commentary.
Out: < 1 nM

API: the following record is the query input.
In: Return value of IC50 for input CC(C)(O)[C@H](F)CNC(=O)c1cnc(-c2ccc3cc(C#N)cnn23)cc1N[C@H]1CC[C@H](O)C1 [Example 522] , no commentary.
Out: < 1 nM

The origin of these recorded values is patent US10336762B2.
